test_name: Stability in mouse blood plasma measured for 12 hrs by RP-HPLC analysis
Type: ADME, cell-free
experimental_parameters: read-out: Stability
Listed next: entries and their corresponding remaining at 12 h.
Answer format: numeric, % implied, no suffix.

{"columns": ["substance", "unit_of_measurement", "remaining at 12 h"],
 "data": [
  ["H-LARVARRVIRFIRRAW-NH2", "%", 20]
]}

Data request, read-out remaining at 12 h, for H-RRRLARRLIFFIRRAW-NH2
20

###

The substances listed here are annotated with their hemolysis at 1 h, 320 µM.
test_name: Hemolytic activity in mouse RBC assessed as hemolysis at 320 uM incubated for 1 hrs by spectrophotometric analysis relative to control
Assay type: toxicity, cell-based, Erythrocyte
experimental_parameters: mouse red blood cells (erythrocytes), read-out: %max
Give the quantity in %, number only.

Before answering, review these 3 worked examples.
{"columns": ["substance", "hemolysis at 1 h, 320 µM / %"],
 "data": [
  ["H-KGVIFAKASVSVKVTASLSKAWTNSQ-NH2", 5.92],
  ["H-KASVSVKVTASLSKAW-NH2", 7.51],
  ["H-WARIARRAIRAWRRWW-NH2", 20.1]
]}

Please give the measured hemolysis at 1 h, 320 µM for this substance: H-LRRFARRLIRRIRRAW-NH2
7.16

Next substance up: H-RARVRVRVRRFLRRRW-NH2
11.3

Also H-RRRWARRIIWIIRRAW-NH2 , if possible.
8.66

Please give the result for H-RRRVARRVFWFVRRAV-NH2 too.
8.25

Can you handle H-RRPLARPLIRFIRRPW-NH2 next?
7.57

###

test_name: Selectivity index, ratio of IC50 for antiproliferative activity against HEK293T cells assessed as reduction in cell viability to MIC for antibacterial activity against methicillin-resistant Staphylococcus aureus assessed as bacterial growth inhibition
Type: toxicity, cell-based
experimental_parameters: human, read-out: Selectivity Index
Here, each record is paired with measured selectivity ratio data.
Just the number, please.

{"columns": ["substance", "selectivity ratio"],
 "data": [
  ["H-LFRVVRRVVRFIRRAA-NH2", 26.7],
  ["H-LRRFARRLIRRIRRAW-NH2", 26.7],
  ["H-KGVIFAKASVSVKVTASLSKAWTNSQ-NH2", 6.67],
  ["H-RRRVARRVIRFIRRAW-NH2", 26.7],
  ["H-RRWWWRRWWWRRRRWW-NH2", 6.67]
]}

Quick check: selectivity ratio of H-RARVAVRVIRFLYRAW-NH2 ?
26.7

Same read-out for H-LARVARRVIRFIRRAW-NH2 ?
107

Same question for H-KARVAVKVIRFLYKAW-NH2 please.
26.7

Note, next up: H-RRWIARRAIWRRRRWW-NH2
6.67

H-RRRLARRLIFFIRRAW-NH2 , same question.
107

Another substance: H-KASVSVKVTASLSKAW-NH2
6.67

###

test_name: Antiproliferative activity against HEK293T cells assessed as reduction in cell viability measured for 48 hrs by MTT assay
Format: toxicity, cell-based, HEK-293T
experimental_parameters: human
property: IC50 at 48 h

Any idea what IC50 at 48 h was measured for CN[C@H](CC(C)C)C(=O)N[C@H]1C(=O)N[C@@H](CC(N)=O)C(=O)N[C@H]2C(=O)N[C@H]3C(=O)N[C@H](C(=O)N[C@H](C(=O)O)c4cc(O)cc(O)c4-c4cc3ccc4O)[C@H](O)c3ccc(c(Cl)c3)Oc3cc2cc(c3O[C@@H]2O[C@H](CO)[C@@H](O)[C@H](O)[C@H]2O[C@H]2C[C@](C)(N)[C@H](O)[C@H](C)O2)Oc2ccc(cc2Cl)[C@H]1O ?
> 320 µM

###

test_name: Hemolytic activity in mouse RBC assessed as hemolysis incubated for 1 hrs by spectrophotometric analysis
Assay type: toxicity, cell-based, Erythrocyte
experimental_parameters: mouse red blood cells (erythrocytes)
property: HC50 at 1 h

What value of HC50 at 1 h has been reported for the following compound? CN[C@H](CC(C)C)C(=O)N[C@H]1C(=O)N[C@@H](CC(N)=O)C(=O)N[C@H]2C(=O)N[C@H]3C(=O)N[C@H](C(=O)N[C@H](C(=O)O)c4cc(O)cc(O)c4-c4cc3ccc4O)[C@H](O)c3ccc(c(Cl)c3)Oc3cc2cc(c3O[C@@H]2O[C@H](CO)[C@@H](O)[C@H](O)[C@H]2O[C@H]2C[C@](C)(N)[C@H](O)[C@H](C)O2)Oc2ccc(cc2Cl)[C@H]1O
> 320 µM

###

IC50 at 48 h reference
test_name: Antiproliferative activity against HEK293T cells assessed as reduction in cell viability measured for 48 hrs by MTT assay
Assay type: toxicity, cell-based, HEK-293T
experimental_parameters: human

Example substances with recorded IC50 at 48 h:
{"columns": ["substance", "IC50 at 48 h"],
 "data": [
  ["H-RRRVARRVIRFIRRAW-NH2", "> 320 µM"],
  ["H-RRWWWRRWWWRRRRWW-NH2", "> 320 µM"],
  ["H-KASVSVKVTASLSKAWTNSQ-NH2", "> 320 µM"],
  ["H-LRRFARRLIRRIRRAW-NH2", "> 320 µM"],
  ["H-KASVSVKVTASLSKAW-NH2", "> 320 µM"],
  ["H-KGVIFAKASVSVKVTASLSKAWTNSQ-NH2", "> 320 µM"]
]}

Recorded IC50 at 48 h for H-RRRLARRLIFFIRRAW-NH2 , please?
> 320 µM

Moving on to the next substance: H-RRRVARRVFWFVRRAV-NH2
> 320 µM

Can you check H-RARVRVRVRRFLRRRW-NH2 next?
> 320 µM

And H-RRFFVRRVFFRRRRFF-OH ?
> 320 µM

Cool, now H-RRRWARRIIWIIRRAW-NH2
> 320 µM

Now give it for H-LFRVVRRVVRFIRRAA-NH2 too.
> 320 µM

Next substance: H-RRPLARPLIRFIRRPW-NH2
> 320 µM

// same read-out, input: H-WRWWRRRRWWRWRRWW-NH2
> 320 µM

What about H-LRPLARRPIRRIRRAW-NH2 ?
> 320 µM

Record: H-RARVAVRVIRFLYRAW-NH2
> 320 µM

Can you check H-RRWIARRAIWRRRRWW-NH2 next?
> 320 µM

Now this one: H-WARIARRAIRAWRRWW-NH2
> 320 µM

Next record, please: H-LARVARRVIRFIRRAW-NH2
> 320 µM

Could you do the same for H-KARVSVKVTASLSKAW-NH2 , please?
> 320 µM

What do you have for H-KARVAVKVIRFLYKAW-NH2 ?
> 320 µM

###

test_name: Selectivity index, ratio of IC50 for antiproliferative activity against HEK293T cells assessed as reduction in cell viability to MIC for antibacterial activity against methicillin-resistant Staphylococcus aureus assessed as bacterial growth inhibition
Assay type: toxicity, cell-based
experimental_parameters: human, read-out: Selectivity Index
property: selectivity ratio
Just the number, please, no unit attached.

# example entries with known answers
{"columns": ["substance", "property", "value"],
 "data": [
  ["H-WRWWRRRRWWRWRRWW-NH2", "selectivity ratio", 6.67],
  ["H-RRRVARRVFWFVRRAV-NH2", "selectivity ratio", 13.3],
  ["H-LRPLARRPIRRIRRAW-NH2", "selectivity ratio", 6.67],
  ["H-RRRWARRIIWIIRRAW-NH2", "selectivity ratio", 13.3]
]}

Query: selectivity ratio; subject: H-KARVSVKVTASLSKAW-NH2
6.67

Here is the next substance: H-RARVRVRVRRFLRRRW-NH2
6.67

###

Test system: HEK-293T
test_name: Antiproliferative activity against HEK293T cells assessed as reduction in cell viability at 2.5 to 320 uM measured for 48 hrs by MTT assay relative to control
Type: toxicity, cell-based
experimental_parameters: human, dose 2.5-320 µM
property: Activity (%)
Give just the numeric value; % need not be written.

{"columns": ["substance", "target_or_test_system", "property", "value"],
 "data": [
  ["H-RRWWWRRWWWRRRRWW-NH2", "HEK-293T", "Activity", 55.74],
  ["H-RRFFVRRVFFRRRRFF-OH", "HEK-293T", "Activity", 59.65],
  ["H-RRWIARRAIWRRRRWW-NH2", "HEK-293T", "Activity", 58.94]
]}

Tell me reported Activity for H-WRWWRRRRWWRWRRWW-NH2 , tested with HEK-293T.
59.04

How about H-WARIARRAIRAWRRWW-NH2 ?
62.65

###

test_name: Selectivity index, ratio of IC50 for antiproliferative activity against HEK293T cells assessed as reduction in cell viability to MIC for antibacterial activity against methicillin-resistant Staphylococcus aureus assessed as bacterial growth inhibition
Assay type: toxicity, cell-based
experimental_parameters: human, read-out: Selectivity Index
property: selectivity ratio
Enter the number alone.

What value of selectivity ratio has been recorded for this entry: CN[C@H](CC(C)C)C(=O)N[C@H]1C(=O)N[C@@H](CC(N)=O)C(=O)N[C@H]2C(=O)N[C@H]3C(=O)N[C@H](C(=O)N[C@H](C(=O)O)c4cc(O)cc(O)c4-c4cc3ccc4O)[C@H](O)c3ccc(c(Cl)c3)Oc3cc2cc(c3O[C@@H]2O[C@H](CO)[C@@H](O)[C@H](O)[C@H]2O[C@H]2C[C@](C)(N)[C@H](O)[C@H](C)O2)Oc2ccc(cc2Cl)[C@H]1O [VANCOMYCIN]
320
